Entry source: ChEMBL document CHEMBL1155246

- Tested on: Radical scavenging activity
- experimentNotes: Antioxidant activity assessed as DPPH free radical scavenging activity by UV spectroscopic method
- Type: functional
pIC50: −log10 of the molar value.
endpointName: pIC50

Example entries and their recorded answers appear below.
Cc1c(C)c2c(c(C)c1O)CCC(C)(C(=O)O)O2 (stereo not given) ... 4.47
N[C@@H](CCC(=O)N[C@@H](CS)C(=O)NCC(=O)O)C(=O)O ... 4.02
SCCNc1nc2ccccc2s1 ... 2.86
Cc1ccc2nc(S)sc2c1 ... 4.04
Sc1nc2ccccc2s1 ... 4.04
CCOc1ccc2c(c1)sc(=N)n2CCO ... 2.85
Cc1ccc2nc(NCCS)sc2c1 ... 2.50
CCSc1nn(CCO)c(=N)s1 ... 2.46

(A) CCc1nn(CCO)c(=N)s1
(B) O=C1O[C@H]([C@@H](O)CO)C(O)=C1O
Lab note: check whether A or B has the lower measured pIC50. Record your answer as the label of the chosen record.
A
(A: 2.62, B: 4.70)

###

- experimentNotes: Acute toxicity in Swiss CD1 mouse assessed as lethality after 48 hrs
- Type: organism-based
- cond: in vivo
// reported LD50 at 48 h per item

CCSc1nnc(S)s1 ... 698 mg/kg
CCc1nnc(S)s1 ... > 680 mg/kg
Sc1nc2ccccc2s1 [2-MERCAPTOBENZOTHIAZOLE] ... > 960 mg/kg
CCSc1nnc(NCCS)s1 ... > 736 mg/kg
NCCCNCCSP(=O)(O)O [AMIFOSTINE] ... 800 mg/kg

I'd like to know its LD50 at 48 h. The molecule in question is SCCNc1nc2ccccc2s1
> 616 mg/kg

I'd like to know its LD50 at 48 h. The molecule in question is Cc1ccc2nc(S)sc2c1
> 520 mg/kg

###

- Test system: Radical scavenging activity
- experimentNotes: Antioxidant activity assessed as DPPH free radical scavenging activity by UV spectroscopic method
- Assay type: functional
// reported IC50 per item

Cc1ccc2c(c1)sc(=N)n2CCO ... > 4000 µM

Identify the measured IC50 of N=c1sc2ccccc2n1CCO for Radical scavenging activity.
> 4000 µM

Identify the measured IC50 of CCSc1nnc(NC(=O)CC)s1 for Radical scavenging activity.
> 4000 µM

Identify the measured IC50 of CCOc1ccc2nc(N)sc2c1 for Radical scavenging activity.
> 4000 µM

Identify the measured IC50 of CCSc1nnc(N)s1 for Radical scavenging activity.
> 4000 µM

Identify the measured IC50 of CCSc1nnc(S)s1 for Radical scavenging activity.
53 µM

Identify the measured IC50 of CCc1nnc(S)s1 for Radical scavenging activity.
84 µM

Identify the measured IC50 of CCSc1nnc(NCCS)s1 for Radical scavenging activity.
110 µM

Identify the measured IC50 of CCC(=O)Nc1nnc(CC)s1 for Radical scavenging activity.
> 4000 µM

Identify the measured IC50 of CCOc1ccc2nc(S)sc2c1 for Radical scavenging activity.
46 µM

###

// reported pIC50 per item
- Tested on: Radical scavenging activity
- experimentNotes: Antioxidant activity assessed as DPPH free radical scavenging activity by UV spectroscopic method
- Assay type: functional
pIC50: −log10 of the molar value.

Example entries and their recorded answers appear below.
CCc1nnc(N)s1 ... < 2.40
NCCCNCCSP(=O)(O)O [AMIFOSTINE] ... 4.00
CCC(=O)Nc1nc2ccccc2s1 ... < 2.40
CCOc1ccc2nc(NC(=O)CC)sc2c1 ... < 2.40

Here is another compound to look at.
I'd like to know its pIC50. The compound in question is CCC(=O)Nc1nc2ccc(C)cc2s1
< 2.40
